Hello, the source for this data is paper PMC8911630, in case you need it.

- System: PANC-1 cell line
- protocol-summary: Cytotoxicity in PANC-1 cell line
- Assay type: cell-based, human
- test-parameters: PANC-1 cell line; read-out: Cytotoxicity IC50 ± SD PANC-1
assay-readout: IC50

Under PANC-1 cell line: report IC50 of Cc1ccccc1N=C(N)Nc1ccccc1C . > 50 µM

###

- Tested on: breast adenocarcinoma MCF7 cells
- protocol-summary: Cytotoxicity in MCF7 cells
- Type: cell-based
- test-parameters: Homo sapiens
- Excerpt: On the other hand, the data also confirmed the need for a strategy with a greater impact on pancreatic tumors. From this perspective, the multitarget FA4 appeared to be a promising candidate and was selected to be further investigated in the primary PDAC cell cultures of the present study. […]
assay-readout: IC50 (µM)
One number for each entry, in µM.

Return IC50 (reported value) for this compound: c1ccc2c(c1)COC21CCN(CCCCn2ccc3ccccc32)CC1 [MT8] 6.02
